target: T1, P01.3 peptide; test: concentration-dependent circular dichroism (222 nm, 40% TFE)
T1 chain: KKIVEILKKLVK
MEASURE: pKd
Quick note: pKd means taking -log10 of the concentration in moles per liter.

Incoming: Would you mind telling me what pKd value was observed for Ac-KKIVEILKKLVK-NH2 [P01.3 peptide] ?
Outgoing: 4.29
